Data credit: paper PMC10864358

Each entry below lists one item and its recorded pKd value.
# measured-target: T1, biotinylated C-terminal Avitagged NDST1 (Homo sapiens, UniProt P52848, biotin on the C-terminal Avitag (BirA biotin-protein ligase))
# T1 construct: human N-deacetylase-N-sulfotransferase 1 (NDST1) with a C-terminal Avitag, made by PCR with tailed primers and subcloned into pOMNIBac; also called biotinylated NDST1; source: insect cells (baculovirus, pOMNIBac), purified; biotinylated with the BirA kit, then a final round of SEC; not shown: Avitag, C-terminal, kept
# T1 sequence (P52848 79-882): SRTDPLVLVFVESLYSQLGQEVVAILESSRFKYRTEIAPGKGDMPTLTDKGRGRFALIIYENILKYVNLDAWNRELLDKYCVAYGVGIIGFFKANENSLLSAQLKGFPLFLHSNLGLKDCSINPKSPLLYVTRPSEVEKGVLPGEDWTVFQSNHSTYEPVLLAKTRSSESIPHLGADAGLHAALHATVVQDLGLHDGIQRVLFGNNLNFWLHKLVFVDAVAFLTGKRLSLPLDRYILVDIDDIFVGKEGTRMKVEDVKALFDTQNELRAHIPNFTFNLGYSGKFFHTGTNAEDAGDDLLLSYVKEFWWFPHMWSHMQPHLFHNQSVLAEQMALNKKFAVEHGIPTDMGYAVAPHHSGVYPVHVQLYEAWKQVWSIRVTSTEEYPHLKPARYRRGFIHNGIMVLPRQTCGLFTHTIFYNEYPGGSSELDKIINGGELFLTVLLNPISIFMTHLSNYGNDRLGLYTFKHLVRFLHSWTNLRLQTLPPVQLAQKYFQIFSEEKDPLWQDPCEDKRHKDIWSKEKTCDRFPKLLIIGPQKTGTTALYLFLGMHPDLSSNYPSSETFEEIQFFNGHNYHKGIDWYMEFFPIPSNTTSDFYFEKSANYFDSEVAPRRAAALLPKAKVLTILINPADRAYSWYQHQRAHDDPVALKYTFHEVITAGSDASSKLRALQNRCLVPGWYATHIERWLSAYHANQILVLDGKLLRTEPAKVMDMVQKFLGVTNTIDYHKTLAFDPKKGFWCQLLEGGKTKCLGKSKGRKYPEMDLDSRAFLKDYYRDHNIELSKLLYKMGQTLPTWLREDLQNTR
# method-notes: SPR; biotinylated NDST1 immobilised on a BiotinCAP sensor chip (Biacore T200), nanobody titrated from 10 µM, 25 °C, 20 mM MES pH 6.5, 100 mM NaCl, 0.05% Tween-20; steady-state responses fitted to a 1:1 model
# conditions-used: both partners purified
Lab note: report pKd as minus log10 of the concentration in molar units, number only.

>  <binder>
nAb6 (VHH, llama VHH from an NDST1-immunized library, selected by phage display; also called anti-NDST1 nanobody 6; source: E. coli WK6, periplasmic extract, purified (HisTrap, SEC)) VHH: QVQLVESGGDLVQPGGSLRLSCAASKTIFVISDMGWYRQAPGKQRELVAMITSGGTTNYADSVKGRFTISRDNTQNTVWLQMNSLKPEDTAVYYCYARVERWRPTDSWGQGTQVTVSS

>  <pKd>
6.08

$$$$
>  <binder>
nAb13 (VHH, in PDB 8CHS nAb13 is modeled only as an all-Calpha chain derived from the nAb7 structure; llama VHH from an NDST1-immunized library, selected by phage display; also called anti-NDST1 nanobody 13; source: E. coli WK6, periplasmic extract, purified (HisTrap, SEC)) VHH: QVQLVESGGGLVQSGGSLRLSCTASRRASSTIGWFRQAPGKEREFVAGINWSLETATYQDSIKDRFTISRDNANNTVYLQMNSLKPEDTAVYYCAASPYRVMGDTTLYPYWGQGTQVTVSS

>  <pKd>
6.28

$$$$
>  <binder>
nAb5 (VHH, llama VHH from an NDST1-immunized library, selected by phage display; also called anti-NDST1 nanobody 5; source: E. coli WK6, periplasmic extract, purified (HisTrap, SEC)) VHH: QVQLVESGGGLVQAGGSLRLSCAASGRTFSSYVMGWFRQAPGKEREFVAAISWSGGTTDYAGSVKGRFTISRDNDRKTMYLEMNDLKPEDTALYYCNFKETWPRTGDYWGPGTQVTVSS

>  <pKd>
6.24

$$$$
>  <binder>
nAb7 (VHH, llama VHH from an NDST1-immunized library, selected by phage display; Long CDR3 loop R98-F116; also called anti-NDST1 nanobody 7; source: E. coli WK6, periplasmic extract, purified (HisTrap, SEC)) VHH: QVQLVESGGGSVQAGGSLRLSCAASGFNVDDYAIGWFRQSPGKEREGVSCIGGDGTTYYENSVKGRFTVSSDKRDNTVYLQMNNLRPEDTAIYFCAADRSKYCVGKYFSTPSQYDFWGRGTHVTVSS

>  <pKd>
6.66

$$$$

Recorded result, nAb1 (VHH, llama VHH from an NDST1-immunized library, selected by phage display; also called anti-NDST1 nanobody 1; source: E. coli WK6, periplasmic extract, purified (HisTrap, SEC)) VHH: QVQLVESGGGLVQAGGSLRLSCAASDRTFTTYAMAWFRRAPPGKEREFVASIRWDGFGTYYTDSVKGRFTISRDSAKNEAYLQMNSLRPEDTGVYYCAAGLLFGNTKGYDHWGQGTQVTVSS , pKd: 5.63
